MEASURED_TARGET: PD-1/PD-L1 (Homo sapiens, UniProt Q9NZQ7)
Construct: made in house; host or cells: HEK293T
Sequence (Q9NZQ7 with tags, fused parts or gaps): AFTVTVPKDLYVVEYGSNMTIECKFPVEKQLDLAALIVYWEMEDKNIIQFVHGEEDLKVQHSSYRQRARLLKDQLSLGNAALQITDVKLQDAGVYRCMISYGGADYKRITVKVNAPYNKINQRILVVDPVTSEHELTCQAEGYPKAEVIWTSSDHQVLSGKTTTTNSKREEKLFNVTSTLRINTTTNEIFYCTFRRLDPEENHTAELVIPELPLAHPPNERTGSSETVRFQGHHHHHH
ASSAY_TEXT: PD-1/PD-L1 Homogenous Time-Resolved Fluorescence (HTRF) binding assay
EXPERIMENTAL_CONTEXT: PD-L1-His 10 nM, PD-1-Ig 20 nM; value given as range class; read-out: Range or IC50
pIC50: −log10 of the molar value.
MEASURED_ATTRIBUTE: pIC50

Cc1c(COc2cc(OCc3cncc(C#N)c3)c(C(C)N3C[C@H](O)C[C@H]3C(=O)O)cc2Cl)cccc1-c1cccc(OCCCN2CC[C@@H](O)C2)c1C (some centres unmarked) :: 8.00 to 9.68
Cc1c(COc2cc(OCc3cncc(C#N)c3)c(CO)cc2Cl)cccc1-c1cccc(OCCCN2CCC[C@H](C(=O)O)C2)c1Cl :: 7.00 to 8.00
Cc1c(COCCN2CC[C@@H](O)C2)cccc1-c1cccc(COc2cc(OCc3cncc(C#N)c3)c(CNC(C)(CO)CO)cc2Cl)c1C :: 8.00 to 9.68
CCNC(=O)c1cccc(-c2cccc(COc3cc(OCc4cc(F)cc(F)c4)c(CNC(C)(CO)CO)cc3Cl)c2C)c1C :: 5.70 to 7.00
Cc1c(COc2cc(OCc3cncc(C#N)c3)c(CN3CCCC[C@H]3C(=O)O)cc2Cl)cccc1-c1cccc(OCCCN2C[C@H](O)C[C@H]2C(=O)O)c1C :: 8.00 to 9.68

Summary for this compound, `Cc1cccc(C)c1COc1cc(OCc2cccc(-c3cccc(OCCCN4CC[C@@H](O)C4)c3C)c2C)c(Cl)cc1CN1CCCC[C@H]1C(=O)O` : pIC50 is 5.00 to 5.70

Summary for this compound, `Cc1c(COc2cc(OCc3cncc(S(C)(=O)=O)c3)c(CN3CCCC[C@H]3C(=O)O)cc2Cl)cccc1-c1cccc(OCCCN2CC[C@H](O)C2)c1C` : pIC50 is 8.00 to 9.68

Summary for this compound, `Cc1c(COc2cc(OCc3cncc(C#N)c3)c(CN[C@](C)(CO)C(=O)O)cc2Cl)cccc1-c1cccc(OCCCNC(CO)CO)c1Cl` : pIC50 is 8.00 to 9.68

Summary for this compound, `Cc1c(COc2cc(OCc3cncc(C#N)c3)c(CN(CC3CC3)C(CO)CO)cc2Cl)cccc1-c1cccc(OCCCN2CC[C@@H](O)C2)c1Cl` : pIC50 is 8.00 to 9.68

Summary for this compound, `Cc1cc(OCCCCN2CC[C@@H](O)C2)ccc1-c1cccc(COc2cc(OCc3cncc(C#N)c3)c(CN3CCCC[C@H]3C(=O)O)cc2Cl)c1C` : pIC50 is 8.00 to 9.68

Summary for this compound, `Cc1c(COc2cc(OCc3cncc(C#N)c3)c(CNC(C)(CO)CO)cc2Cl)cccc1-c1cccc(OCCc2ccccn2)c1Cl` : pIC50 is 8.00 to 9.68

###

MEASURED_TARGET: PD-1/PD-L1 (Homo sapiens)
Construct: made in house; host or cells: HEK293T
ASSAY_TEXT: PD-1/PD-L1 Homogenous Time-Resolved Fluorescence (HTRF) binding assay
EXPERIMENTAL_CONTEXT: PD-L1-His 10 nM, PD-1-Ig 20 nM; numeric IC50; read-out: Range or IC50
pIC50: −log10 of the molar value.
MEASURED_ATTRIBUTE: pIC50

Cc1c(COc2cc(OCc3cncc(C#N)c3)c(CN3CCCC[C@H]3C(=O)O)cc2Cl)cccc1-c1cccc(OCCCN2CCC(CO)(C(=O)O)C2)c1Cl (stereo partly drawn) :: 9.00
Cc1c(COc2cc(OCc3cncc(C#N)c3)c(CN3CCCC[C@H]3C(=O)O)cc2Cl)cccc1-c1cccc(OCC(O)CO)c1Cl (stereo partly drawn) :: 8.40

[P] CCN(CCCOc1cccc(-c2cccc(COc3cc(OCc4cncc(C#N)c4)c(CN(CC)C[C@H](O)CO)cc3Cl)c2C)c1Cl)C[C@H](O)CO
[Q] Cc1c(OCCCN2CC[C@@H](O)C2)cccc1-c1cccc(COc2cc(OCc3cncc(C#N)c3)c(CNC(CO)CO)cc2Cl)c1Cl
[R] Cc1c(COc2cc(OCc3cncc(C#N)c3)c(CN3CCCC[C@H]3C(=O)O)cc2Cl)cccc1-c1cccc(OCC(=O)N2CC[C@@H](O)C2)c1
[S] Cc1c(COc2cc(OCc3cncc(C#N)c3)c(CN[C@@H](Cc3ccc(O)cc3)C(=O)O)cc2Cl)cccc1-c1cccc(OCCCN2CC[C@@H](O)C2)c1C
[T] CNC(=O)c1cccc(-c2cccc(COc3cc(OCc4cc(F)cc(F)c4)c(CN4CCC[C@H]4C(=O)O)cc3Cl)c2C)c1C
Task: Kindly order the items shown according to pIC50, from the highest value down. The response must list the labels following the requested ordering.
Result: Q, S, P, R, T
(Q: 8.77, S: 8.52, P: 8.30, R: 7.59, T: 7.06)

[A] Cc1c(COc2cc(OCCCN3CC[C@@H](O)C3)c(CN3CCCC[C@H]3C(=O)O)cc2Cl)cccc1-c1cccc(OCCCN2CC[C@@H](O)C2)c1C
[B] Cc1c(COc2cc(OCc3cncc(C#N)c3)c(CN3CCCC[C@H]3C(=O)O)cc2Cl)cccc1-c1cccc(OCCCN(C)C)c1C
Task: Decide: A or B , by lowest recorded pIC50. # reply format: chosen label
Result: B

[a] Cc1c(COc2cc(OCc3cncc(C#N)c3)c(CN3CCCC[C@H]3C(=O)O)cc2Cl)cccc1-c1cccc(OCC(=O)N2CC[C@H](O)C2)c1
[b] Cc1c(COc2cc(OCc3cncc(C#N)c3)c(CN3CCCC[C@H]3C(=O)O)cc2Cl)cccc1-c1cccc(OCCCNCCc2ncn(C)c2Cl)c1C
Task: Between a and b , which one shows the larger pIC50 value? # reply format: chosen label
Result: b
(b: 7.92, a: 7.43)
